# Procedure Summary: Half life in rat brain
# Assay type: ADME, tissue-based
Reported half-life values are given for each entry in this list.
# answer = value followed by unit

{"Smiles": "Cc1c(C(=O)NCCCN2CCN(c3cccc(Cl)c3Cl)CC2)cc(-c2ccccc2)n1C.Cl", "Measured": "4.28 h"}

Then this compound:
Fill blank: measured half-life of the compound Cc1[nH]c(-c2ccccc2)cc1C(=O)NCCCN1CCN(c2cccc(Cl)c2Cl)CC1.Cl is ____.
3.42 h

* * *

# half-life per record follows
# Procedure Summary: Elimination half life in rat at 5 mg/kg, po
# Format: ADME, organism-based
# Set-up: dose 5 mg/kg, route oral
# Conditions: in vivo, read-out: beta t1/2 (converted)
Reply numerically in h, unit not repeated.

{"Smiles": "Cc1c(C(=O)NCCCN2CCN(c3cccc(Cl)c3Cl)CC2)cc(-c2ccccc2)n1C.Cl", "Experimental Endpoint": "half-life", "Result Units": "h", "Measured": 3.14}

Now examine the next entry.
Which half-life reading was recorded for the compound Cc1[nH]c(-c2ccccc2)cc1C(=O)NCCCN1CCN(c2cccc(Cl)c2Cl)CC1.Cl ?
2.52

* * *

# Tgt: 5-hydroxytryptamine receptor 2C (Homo sapiens, UniProt P28335)
# Sequence (P28335 whole entry): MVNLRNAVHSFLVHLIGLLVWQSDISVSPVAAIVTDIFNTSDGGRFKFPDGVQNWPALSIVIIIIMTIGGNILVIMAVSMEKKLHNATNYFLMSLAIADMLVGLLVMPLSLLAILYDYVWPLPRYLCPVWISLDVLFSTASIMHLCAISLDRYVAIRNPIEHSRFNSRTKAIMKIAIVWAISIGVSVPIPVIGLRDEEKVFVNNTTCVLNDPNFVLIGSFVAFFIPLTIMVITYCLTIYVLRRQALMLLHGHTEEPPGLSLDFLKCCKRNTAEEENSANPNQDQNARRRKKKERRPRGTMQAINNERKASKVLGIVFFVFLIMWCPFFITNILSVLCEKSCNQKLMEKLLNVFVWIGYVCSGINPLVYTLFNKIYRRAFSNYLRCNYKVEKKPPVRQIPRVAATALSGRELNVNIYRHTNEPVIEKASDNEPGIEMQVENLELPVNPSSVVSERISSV
# Procedure Summary: Displacement of [3H]mesulergine from human recombinant 5-HT2C receptor expressed in CHO-K1 cells after 60 mins by rapid filtration assay
# Type: cell-based
Listing of recorded IC50 by entry.
Report the figure in nM without appending any unit label.

{"Smiles": "Cc1cccc(N2CCN(CCCNC(=O)c3cc(-c4ccccc4)n(N4CCCCC4)c3C)CC2)c1C", "Measured": 417}

Recall the recorded IC50 for Cc1c(C(=O)NCCN2CCN(c3cccc(Cl)c3Cl)CC2)cc(-c2ccccc2)n1C with 5-hydroxytryptamine receptor 2C (Homo sapiens, UniProt P28335) and state it.
156

* * *

# Procedure Summary: Cmax in rat at 1 mg/kg, iv
# Assay type: ADME, organism-based
# Design: dose 1 mg/kg, route intravenous
# Conditions: in vivo
Experimental Endpoint: Cmax (ng/mL)
Give just the number in ng/mL; leave the unit off.

{"Smiles": "Cc1c(C(=O)NCCCN2CCN(c3cccc(Cl)c3Cl)CC2)cc(-c2ccccc2)n1C.Cl", "Cmax (ng/mL)": 454}

With those in mind, consider the next compound.
Name the recorded Cmax for Cc1[nH]c(-c2ccccc2)cc1C(=O)NCCCN1CCN(c2cccc(Cl)c2Cl)CC1.Cl .
690

* * *

# Tested on: Mus musculus
# Procedure Summary: Antidepressant activity in mouse assessed as decrease in duration of immobility at 100 mg/kg, po during final 5 mins of the 6 mins session by forced swimming test
# Format: functional
# Design: scale not given: the % may be the effect or the level left
Calls of active or inactive are those of the source. No cut-off for these calls is given here.
Experimental Endpoint: Activity

Guide cases for Activity, answers given:
{"Smiles": "CCn1c(-c2ccccc2)cc(C(=O)NCCCN2CCN(c3cccc(Cl)c3Cl)CC2)c1C", "Activity": "<25%"}
{"Smiles": "Cc1c(C(=O)NCCCN2CCN(c3cccc(Cl)c3)CC2)cc(-c2ccccc2)n1C", "Activity": "inactive"}
{"Smiles": "Cc1[nH]c(-c2ccccc2)cc1C(=O)NCCCN1CCN(c2cccc(Cl)c2Cl)CC1", "Activity": "Active"}
{"Smiles": "CCn1c(-c2ccccc2)cc(C(=O)NCCCN2CCN(c3cccc(Cl)c3)CC2)c1C", "Activity": "inactive"}
{"Smiles": "Cc1c(C(=O)NCCCN2CCN(c3cccc(Cl)c3Cl)CC2)cc(-c2ccccc2)n1C", "Activity": "<25%"}

Next molecule, Activity to be filled in.
Which Activity reading was recorded for the molecule Cc1c(C(=O)NCCCN2CCN(c3cccc(Cl)c3Cl)CC2)cc(-c2ccccc2)n1N1CCCCC1 ?
Active
